OBSERVATION_TYPE: melting point

# count of solved cases: 4
[
  {
    "SMILES_STRING": "CN(C)c1nc(Cc2ccc(NC(=O)c3ccc(-c4ccccc4)cc3)cc2)nc(N2CCCC2)c1CC(=O)O",
    "melting point": "224 to 226 °C"
  },
  {
    "SMILES_STRING": "CN(C)c1nc(Cc2ccc(NC(=O)c3cccc(Cl)c3)cc2)nc(Cl)c1CC(=O)O",
    "melting point": "> 108 °C"
  },
  {
    "SMILES_STRING": "CN(CC(=O)NC1CCCC1)c1nc(Cc2ccc(NC(=O)c3ccco3)cc2)nc(Cl)c1CC(=O)O",
    "melting point": "> 119 °C"
  },
  {
    "SMILES_STRING": "CN(CC(=O)NC1CCCC1)c1nc(Cc2ccc(NC(=O)c3cccnc3)cc2)nc(Cl)c1CC(=O)O",
    "melting point": "> 174 °C"
  }
]

Form field melting point, entry CN(C)c1nc(Cc2ccc(NC(=O)/C=C/c3ccccc3)cc2)nc(N2CCCC2)c1CC(=O)O : 151 to 153 °C

* * *

target: human CRTH2 (Homo sapiens); construct: expressed in transfected cells; host or cells: L1.2 cells, pEAK expression vector, puromycin-selected; assay: Measurement of Ca2+ mobilization in the human CRTH2-transfected L1.2 cell line (Assay 1); assay type: cell-based; settings: PGD2-induced Ca2+ mobilization in CRTH2-transfected L1.2 cells; compounds as yielded by solid phase synthesis, purity about 40 to 90%; read-out: Activity class
Sequence (Q9Y5Y4 whole entry): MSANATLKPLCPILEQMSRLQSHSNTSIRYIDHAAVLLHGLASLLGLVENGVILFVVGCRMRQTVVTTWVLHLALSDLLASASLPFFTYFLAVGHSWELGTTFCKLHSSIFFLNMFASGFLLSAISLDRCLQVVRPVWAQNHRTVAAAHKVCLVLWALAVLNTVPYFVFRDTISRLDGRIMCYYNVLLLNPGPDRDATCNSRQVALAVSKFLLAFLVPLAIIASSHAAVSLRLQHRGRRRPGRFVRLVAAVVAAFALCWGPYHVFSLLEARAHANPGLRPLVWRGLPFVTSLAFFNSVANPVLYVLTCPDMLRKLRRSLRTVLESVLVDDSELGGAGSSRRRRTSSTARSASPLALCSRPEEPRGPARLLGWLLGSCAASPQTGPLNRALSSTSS
pIC50: −log10 of the molar value.
pIC50 reference

# count of solved cases: 6
[
  {
    "COMPOUND": "CN(CC(=O)NC1CCCC1)c1nc(Cc2ccc(NC(=O)c3ccccc3)cc2)ncc1CC(=O)O",
    "VALUE_REPORTED": "7.00 to 8.00"
  },
  {
    "COMPOUND": "CN(C)c1ccc(C(=O)Nc2ccc(Cc3nc(Cl)c(CC(=O)O)c(N(C)C)n3)cc2)cc1",
    "VALUE_REPORTED": "> 8.00"
  },
  {
    "COMPOUND": "CC(C)c1nc(Cc2ccc(NC(=O)c3ccc(C(F)(F)F)cc3)cc2)nc(N(C)C)c1CC(=O)O",
    "VALUE_REPORTED": "7.00 to 8.00"
  },
  {
    "COMPOUND": "CN(C)c1nc(Cc2ccc(NC(=O)/C=C/c3ccccc3)cc2)ncc1CC(=O)O",
    "VALUE_REPORTED": "> 8.00"
  },
  {
    "COMPOUND": "O=C(O)Cc1c(Cl)nc(Cc2ccc(NC(=O)c3ccc(Cl)c(Cl)c3)cc2)nc1N1CCCC1",
    "VALUE_REPORTED": "> 8.00"
  },
  {
    "COMPOUND": "CN(C)c1nc(Cc2ccc(NC(=O)/C=C/c3ccc(C(F)(F)F)cc3)cc2)ncc1CC(=O)O",
    "VALUE_REPORTED": "> 8.00"
  }
]

Form field pIC50, entry CN(CC(=O)O)c1nc(Cc2ccc(NC(=O)c3ccc4ccccc4c3)cc2)nc(Cl)c1CC(=O)O : 7.00 to 8.00

Form field pIC50, entry CN(CC(=O)NC1CCCC1)c1nc(Cc2ccc(NC(=O)Cc3ccc(Oc4ccccc4)cc3)cc2)nc(Cl)c1CC(=O)O : 7.00 to 8.00

Form field pIC50, entry COc1c(C)cc(C(=O)Nc2ccc(Cc3nc(Cl)c(CC(=O)O)c(N4CCCC4)n3)cc2)cc1C : > 8.00

Form field pIC50, entry CCc1nc(Cc2ccc(NC(=O)OCc3ccccc3)cc2)nc(N(C)C)c1CC(=O)O : < 6.30

Form field pIC50, entry COCCN(C)c1nc(Cc2ccc(NC(=O)c3ccc4ccccc4c3)cc2)nc(Cl)c1CC(=O)O : > 8.00

Form field pIC50, entry CN(C)c1nc(Cc2cccc(NC(=O)c3ccc4ccccc4c3)c2)nc(Cl)c1CC(=O)O : 7.00 to 8.00

Form field pIC50, entry CN(CC(=O)NC1CCCC1)c1nc(Cc2ccc(NC(=O)Cc3cccc(Oc4ccccc4)c3)cc2)nc(Cl)c1CC(=O)O : > 8.00

Form field pIC50, entry CN(C)c1nc(Cc2ccc(NC(=O)c3ccc(F)cc3)cc2)nc(N2CCCC2)c1CC(=O)O : 6.30 to 7.00
